Hey, just so you know, these numbers are from the supplement of paper PMC9170038.

apparent KD of MS2 coat protein values, listed per item
# Tested on: MS2 coat protein
# TEST SUMMARY: apparent KD of MS2 coat protein; designed switch direction (-1 OFF switch, 1 ON switch): 1; higher = weaker reporter binding
# CONDITION DETAILS: input ligand: microRNA oligo, concentration not stated
MEASURED QUANTITY: apparent KD of MS2 coat protein (µM)

- SEQ STRING: "GGUCGGACCUACAUGAGGAUCACCCAUGUUCCGGAAACGGCACAGGAUAUCUGUCCGAAAAGGUCAGAGAAGGGUGAACCGACC [Fiskers NG3ss - 75] (Eterna round: R96, puzzle: Same State NG 3)"
  MEASURED QUANTITY: "apparent KD of MS2 coat protein"
  TEST VALUE: 0.508
- SEQ STRING: "GCUGCAAGGGCAGGAUAUGGGUCCAGAGCGCAAGUGCGCCCUGGUACAUGAGGAUCACCCAUGUCCCAGAAGGGCCCAAGCAGC [Vetierribi] (Eterna round: R96, puzzle: Same State NG 2)"
  MEASURED QUANTITY: "apparent KD of MS2 coat protein"
  TEST VALUE: 0.0689
- SEQ STRING: "AAACAUGAGCGAGGAUAUGCGGAGGAUUACCCUGUAGAAGGCGCAUGUAAAACAACAUGAGGAUCACCCAUGUCAUGUACAUGU (Eterna round: R96, puzzle: Same State NG 1)"
  MEASURED QUANTITY: "apparent KD of MS2 coat protein"
  TEST VALUE: 0.115

====

# Test system: MS2 coat protein
# TEST SUMMARY: apparent KD of MS2 coat protein; designed switch direction (-1 OFF switch, 1 ON switch): -1; higher = weaker reporter binding
# CONDITION DETAILS: input ligand: microRNA oligo, concentration not stated
MEASURED QUANTITY: apparent KD of MS2 coat protein (nM)

- SEQ STRING: "CGUCGAAAUGUAGGAUAUCUGCACGUGUAGUGCAGAGAAGGACAUGAGGAUCACCCAUGUAGAUCACGACGAAUUAAUUUAAUU [ENG1/5-C3] (Eterna round: R96, puzzle: Exclusion NG 1)"
  RESULT UNIT: "nM"
  TEST VALUE: 50.4
- SEQ STRING: "CUAGAUCUUCGGAUCUAGUACAUGAGGAUCACCCAUGUGACGAGUAGAUCCUCAAACAAGCUUUUUGCUCGUCUUAU [Sensor v3 - Turn-off variant 1 - 20] (Eterna round: R96, puzzle: Sensor v3, turn-off variant 1)"
  RESULT UNIT: "nM"
  TEST VALUE: 16.4
- SEQ STRING: "GGAUAAAAGUCAGGAUAUACGUAUCGCUAGCGAGUAGAAGGGACACAUGAGGAUCACCCAUGUGAGUUCUCAAUAAGAAACACG [Prohibition 61 - Jieux - Exclusion NG 1] (Eterna round: R96, puzzle: Exclusion NG 1)"
  RESULT UNIT: "nM"
  TEST VALUE: 16.3
- SEQ STRING: "CUGUAGCUAUGAGGAUAUGCCACAAAAGUAGUUGCAGAAGGCAUCCCUACCCAGUAAGAACAUGAGGAUCACCCAUGUGAUCUG [Eternabot solution 43] (Eterna round: R96, puzzle: Exclusion NG 1)"
  RESULT UNIT: "nM"
  TEST VALUE: 44.5
- SEQ STRING: "CCCGGGUUUGUAGGAUAUGCCCGCCUUUGGCGGGCAGAAGGACAUGAGGAUCACCCAUGUUGUAUAAACUUGGGAUGUUCCUCG [random4] (Eterna round: R96, puzzle: Exclusion NG 1)"
  RESULT UNIT: "nM"
  TEST VALUE: 31.3
- SEQ STRING: "AUCGUGCAGCUUUGCUGUACGAGUACAUGAGGAUCACCCAUGUAGGAUAUGGUACGCUUUGCGUGCUAGAAGGAUAUGAGAUGU [JL ENG3 1.49] (Eterna round: R96, puzzle: Exclusion NG 3)"
  RESULT UNIT: "nM"
  TEST VALUE: 32
- SEQ STRING: "CCGGUUGGCGCAGGAUAUACAUGAGGAUCACCCAUGUUCAUGAGGAUCACCUAUGAGUUUUUGUUGUAGAAGGGUGGCCCGGCC (Eterna round: R96, puzzle: Exclusion NG 2)"
  RESULT UNIT: "nM"
  TEST VALUE: 39.1
- SEQ STRING: "UUUGUUUUGCAAGGAUAUGUUUAAUUUUAGUUUCCUUACACAUGAGGAUCACCCAUGUUAUACUUACAGAAGGUGCGUAAUUUU [Excl-NG2-LRO02] (Eterna round: R96, puzzle: Exclusion NG 2)"
  RESULT UNIT: "nM"
  TEST VALUE: 104
- SEQ STRING: "GCACGGUUGGUAGGAUAUCAUUGCGAUUAGCUAUGAGAAGGACCACAUGAGGAUCACCCAUGUCCUCUAAUUAGCCUGCCGUGC [Eli exng1 - 014] (Eterna round: R96, puzzle: Exclusion NG 1)"
  RESULT UNIT: "nM"
  TEST VALUE: 118
- SEQ STRING: "GAAUAGGCAGGAUAUACAUGAGGAUCACCCAUGUGCCGGCGAAAGGUACGUUCGAAAGGUAGAAGGGCCUAAAC [ChP 13.04.2015 #7] (Eterna round: R96, puzzle: Exclusion 3)"
  RESULT UNIT: "nM"
  TEST VALUE: 36.7
- SEQ STRING: "UCACGGGACUGAGGAUAUACAUUUAUUAUUUUAGUAGAAGGCAGAAAGUUAGUUUUUUCACUAUACAUGAGGAUCACCCAUGUU [JR_ExcNG1_Sub085] (Eterna round: R96, puzzle: Exclusion NG 1)"
  RESULT UNIT: "nM"
  TEST VALUE: 20.4
- SEQ STRING: "GAAAAGGUAGGAUAUACGAAAAAAAAGGGUAGAAAAAAAACACAUGAGGAUCACCCAUGUAGAAGGACCAAAAG [Mat - Exclusion 2 - Tesla mod - D30] (Eterna round: R96, puzzle: Exclusion 2)"
  RESULT UNIT: "nM"
  TEST VALUE: 25.3
- SEQ STRING: "CCCGUCGAUGUAGGAUAUGCCCGGGUCUCCCGGGCAGAAGGACAUGAGGAUCACCCAUGUUCGUGAGGAUCACCCAUGAAUGGG [Double but mutated MS2] (Eterna round: R96, puzzle: Exclusion NG 1)"
  RESULT UNIT: "nM"
  TEST VALUE: 13
- SEQ STRING: "ACAGUUCUGCAAGGAUAUCGUCCUAGUUUGUUUCGAGAAGGUGCUUUUGUUUUUUCCUUUUGUUUACAUGAGGAUCACCCAUGU [JR_ExcNG1_Sub051] (Eterna round: R96, puzzle: Exclusion NG 1)"
  RESULT UNIT: "nM"
  TEST VALUE: 16.6
- SEQ STRING: "ACAAGCUUAGGUAAUCAUAACAUGAGGAUCACCCAUGUUCGUCUUAUAAAAAUAAAAAUAAAAAACAAAAAAUAAAA [Sensor V2: 65] (Eterna round: R96, puzzle: Sensor v2, turn-off variant)"
  RESULT UNIT: "nM"
  TEST VALUE: 70.6
- SEQ STRING: "AAUGUCCAACGAGGAUAUGGGAAAGGAAGUGUACCAGAAGGCGUACGGACAUGAGGAUCACCCAUGUCGCGCGGCGCGAUGUGG [PowerStrip EXNG 1.14] (Eterna round: R96, puzzle: Exclusion NG 1)"
  RESULT UNIT: "nM"
  TEST VALUE: 46.4
- SEQ STRING: "UAUUACCUAGGAUAUACAUGAGGAUCACCCAUGUCACGGGUCAACUUGUCCUAUGCGUGUAGAAGGAGGGACCC [JL Ceriza mod 6] (Eterna round: R96, puzzle: Exclusion 3)"
  RESULT UNIT: "nM"
  TEST VALUE: 16.5
- SEQ STRING: "GUGUACAGAGGAUAUAUAUGAGCAUGGAAACAUGCAAGAUCACAUGAGGAUCACCCAUGUAGAAGGCUGUACAC [Ex2: 736] (Eterna round: R96, puzzle: Exclusion 2)"
  RESULT UNIT: "nM"
  TEST VALUE: 99.3
